Molecular target: human MC4R (Homo sapiens)
Construct: expressed in transfected cells
Sequence (P32245 whole entry): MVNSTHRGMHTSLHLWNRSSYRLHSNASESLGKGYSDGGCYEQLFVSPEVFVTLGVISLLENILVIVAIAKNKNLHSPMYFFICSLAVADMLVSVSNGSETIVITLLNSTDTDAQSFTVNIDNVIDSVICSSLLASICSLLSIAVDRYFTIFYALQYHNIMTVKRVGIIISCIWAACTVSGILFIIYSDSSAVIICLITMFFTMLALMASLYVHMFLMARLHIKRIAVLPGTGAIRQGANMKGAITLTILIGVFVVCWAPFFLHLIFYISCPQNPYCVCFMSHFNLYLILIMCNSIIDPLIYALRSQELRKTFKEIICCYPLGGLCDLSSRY
Test: Functional cAMP assay (CisBio HTRF) in BHK cells expressing human MC4R
Assay type: cell-based
Conditions: MC1R cAMP EC50 divided by MC4R cAMP EC50
Starred links: 1 amine or outer side, 2 acyl side, 3 side chain; linkers in the order of their positions; H or OH if unused. Positions of bridges follow the written chain, without caps; N, C: chain ends. Non-standard residues stand in square brackets, D forms with d. Residues, ends and D or L forms follow the SMILES beside them. Lys(CH2CO2H)2 = N[C@@H](CCCCN(CC(=O)O)CC(=O)O)C(=O)O; Cit = NC(=O)NCCC[C@H](N)C(=O)O; d(hCys) = N[C@H](CCS)C(=O)O; Thz = O=C(O)[C@@H]1CSCN1; X1 = C(CN[*:2])CS[*:1]
Would you mind telling me the reported MC1R/MC4R cAMP EC50 ratio of each entry?
Answers are plain numbers.

Here's what some known entries look like.
Molecule: CC(=O)NCCCC[C@@H]1NC(=O)[C@@H](Cc2ccccc2)NC(=O)[C@H](Cc2c[nH]cn2)NC(=O)[C@H](C)NC(=O)[C@@H]2CSSC[C@H](NC(=O)[C@H](Cc3c[nH]c4ccccc34)NC1=O)C(=O)N[C@@H](C)C(=O)N[C@@H](CCCCN)C(=O)N[C@H](CCCCN)C(=O)N[C@@H](CCCCN)C(=O)N[C@@H](Cc1c[nH]c3ccccc13)C(=O)N2 [Chem. 58] (cyclo(AH[dF]K(Ac)WCAK[dK]KWC); disulfide 6-12)
MC1R/MC4R cAMP EC50 ratio: 36
//
Molecule: CC(=O)N[C@@H](Cc1c[nH]cn1)C(=O)N[C@H](Cc1ccccc1)C(=O)N[C@@H](CCCNC(=N)N)C(=O)N[C@@H](Cc1c[nH]c2ccccc12)C(=O)N[C@@H](C)C(=O)N[C@@H]1CCSSCCCNC(=O)[C@H](C)NC(=O)[C@H](Cc2c[nH]c3ccccc23)NC(=O)[C@H](CCCNC(=N)N)NC(=O)[C@@H](Cc2ccccc2)NC(=O)[C@H](Cc2c[nH]cn2)NC1=O [Chem. 5] (Ac-H[dF]RWA[d(hCys)]H[dF]RWA; linker 6-C via X1)
MC1R/MC4R cAMP EC50 ratio: 31
//
Molecule: C[C@@H]1NC(=O)[C@H](C)NC(=O)[C@@H]2CSSC[C@H](NC(=O)[C@H](Cc3c[nH]c4ccccc34)NC(=O)[C@H](C)NC(=O)[C@H](CCCCN(CC(=O)O)CC(=O)O)NC1=O)C(=O)N1CSC[C@H]1C(=O)N[C@@H](Cc1c[nH]cn1)C(=O)N[C@H](Cc1ccccc1)C(=O)N[C@@H](Cc1c[nH]cn1)C(=O)N[C@@H](Cc1c[nH]c3ccccc13)C(=O)N2 [Chem. 104] (cyclo(AA[Lys(CH2CO2H)2]AWC[Thz]H[dF]HWC); disulfide 6-12)
MC1R/MC4R cAMP EC50 ratio: 167

// each listed molecule needs a value for MC1R/MC4R cAMP EC50 ratio
1. C[C@@H]1NC(=O)[C@@H]2CSSC[C@H](NC(=O)[C@H](CCCNC(=N)N)NC(=O)[C@H](CCCCN)NC(=O)[C@H](CCCCN)NC(=O)[C@H](CCCCN)NC1=O)C(=O)N1CCC[C@H]1C(=O)N[C@@H](Cc1c[nH]cn1)C(=O)N[C@H](Cc1ccccc1)C(=O)N[C@@H](CCCNC(N)=O)C(=O)N[C@@H](Cc1c[nH]c3ccccc13)C(=O)N2 [Chem. 72] (cyclo(AKKKRCPH[dF][Cit]WC); disulfide 6-12)
2. C[C@@H]1NC(=O)[C@@H]2CSSC[C@H](NC(=O)[C@H](Cc3c[nH]c4ccccc34)NC(=O)[C@H](Cc3c[nH]cn3)NC(=O)[C@@H](Cc3ccccc3)NC(=O)[C@H](Cc3c[nH]cn3)NC1=O)C(=O)N[C@@H](C)C(=O)N[C@@H](Cc1c[nH]cn1)C(=O)N[C@H](Cc1ccccc1)C(=O)N[C@@H](Cc1c[nH]cn1)C(=O)N[C@@H](Cc1c[nH]c3ccccc13)C(=O)N2 [Chem. 24] (cyclo(AH[dF]HWCAH[dF]HWC); disulfide 6-12)
3. C[C@@H]1NC(=O)[C@@H]2CSSC[C@H](NC(=O)[C@H](Cc3c[nH]c4ccccc34)NC(=O)[C@H](CCCCN(C)C)NC(=O)[C@@H](Cc3ccccc3)NC(=O)[C@H](Cc3c[nH]cn3)NC1=O)C(=O)N[C@@H](C)C(=O)N[C@@H](Cc1c[nH]cn1)C(=O)N[C@H](Cc1ccccc1)C(=O)N[C@@H](CCCCN(C)C)C(=O)N[C@@H](Cc1c[nH]c3ccccc13)C(=O)N2 [Chem. 18]

Response given:
1. 195
2. 364
3. 35
